- Assay explanation: NOVARTIS: Cytotoxicity against human hepatocellular carcinoma cell line (Huh7)
- Type: toxicity, cell-based, Huh-7
- Study conditions: Huh7 cells (hepatocellular carcinoma cell line)
Below, each entry is listed alongside its reported CC50.

CN(C)CCNc1cc(-c2ccccc2)nc2ccccc12; 21.2 µM
CCCCN(CCCC)CC(O)c1cc(-c2ccc(Cl)cc2)nc2cc(Cl)ccc12 (stereo not given); > 12.4 µM
CCN(CC)CCNC(=O)c1cc(-c2ccc(Cl)cc2)cc(-n2cnnn2)c1; > 10 µM
Cc1sc2ncnc(Nc3ccncc3)c2c1C; > 100 µM
O=C1CC(c2cccc([N+](=O)[O-])c2)c2cc3c(cc2N1)OCO3 (stereo not given); > 100 µM

Exercise: Endpoint output: CC50 of COc1ccc2nc3ccccc3c(N)c2c1 . Value?
Solution: 5.72 µM

Exercise: Try CCOC(=O)c1cccc(NC(=O)CC2C(=O)N(c3ccccc3)C(=O)N2C2CCCC2)c1 (stereo not given) next.
Solution: > 100 µM

Exercise: Try CCCCc1c(C)nc2c(OC)cccc2c1O next.
Solution: > 100 µM

Exercise: Try CC(NC(=O)C(=O)N1CCCCC1)C(c1cccs1)N1CCOCC1 (stereo not given) next.
Solution: > 100 µM

Exercise: Try COC(=O)[C@@H]1C[C@@H](NC(=O)c2ccccc2F)CN1CC(c1ccccc1)c1ccccc1 next.
Solution: > 10 µM

----------
Below, each entry is listed alongside its reported pEC50.
- Tested on: Plasmodium falciparum
- Assay explanation: NOVARTIS: Inhibition of Plasmodium falciparum W2 (drug-resistant) proliferation in erythrocyte-based infection assay
- Assay type: functional, organism-based
- Study conditions: Plasmodium falciparum, W2; read-out: EC50
Keep in mind that pEC50 stands for -log10 of concentration in molar terms.

Exercise: Endpoint output: pEC50 of O=C(NC(CN1CCCC1)c1ccccc1)C1CCN(S(=O)(=O)c2ccc(Cl)cc2)CC1 (centres undefined) . Value?
Solution: 6.19

----------
Below, each entry is listed alongside its reported pEC50.
- Tested on: Plasmodium falciparum
- Assay explanation: NOVARTIS: Inhibition of Plasmodium falciparum W2 (drug-resistant) proliferation in erythrocyte-based infection assay
- Type: functional, organism-based
- Study conditions: Plasmodium falciparum, W2; read-out: EC50
Keep in mind that pEC50 stands for -log10 of concentration in molar terms.

Solved cases below.
CC(Sc1nnc2c3ccccc3n(Cc3ccccc3)c2n1)C(=O)N1CCN(C(=O)C(c2ccccc2)c2ccccc2)C(C)C1 (stereo not given); 6.90
NC(=O)C(Cc1ccccc1)Nc1ccc([N+](=O)[O-])cc1[N+](=O)[O-] (stereo not given); 6.17
COCCOC(=O)NCc1ccc(Nc2c(C(C)(C)C)nc3cnccn23)cc1; 7.81
CCCCc1ccc(Nc2ncnc3sc4c(c23)CCCC4)cc1; 5.47
O=C1CN(C(=O)CCC2CCCC2)C(c2ccc(F)cc2)c2cc(F)ccc2N1 (stereo not given); 6.64

Exercise: Endpoint output: pEC50 of CN(CCCNc1ccnc2cc(Cl)ccc12)C(=O)C(Cl)Cl . Value?
Solution: 7.04

Exercise: Try Cc1ccc2[nH]c3c(NCCN4CCCC4)ncnc3c2c1 next.
Solution: 6.13

Exercise: Try CN(C)c1ccc(C=CC=Cc2cccc[n+]2C)cc1.[O-][Cl+3]([O-])([O-])[O-] next.
Solution: 6.75

Exercise: Try Fc1ccc(N2CCN(c3ncnc4c3cnn4-c3ccccc3)CC2)cc1 next.
Solution: 5.42

----------
- Tested on: Plasmodium falciparum
- Assay explanation: NOVARTIS: Inhibition of Plasmodium falciparum 3D7 (drug-susceptible) proliferation in erythrocyte-based infection assay
- Format: functional, organism-based
- Study conditions: Plasmodium falciparum, 3D7
Below, each entry is listed alongside its reported EC50.

CCOC(=O)c1c(CC)nc(-c2ccccc2)nc1C(=O)N1CCC(C)CC1; > 1.25 µM

Exercise: Endpoint output: EC50 of Cc1sc2ncnc(Nc3ccncc3)c2c1C . Value?
Solution: > 12.5 µM

Exercise: Try COC(=O)C1=C(C)N/C(=C/c2cc(C)n(-c3ccc(Cl)c(Cl)c3)c2C)C1=O next.
Solution: > 1.02 µM

Exercise: Try CCC(C)(C)C1CCc2c(sc(NC(=O)c3ccc(F)cc3)c2C(N)=O)C1 (stereo not given) next.
Solution: > 1.25 µM

Exercise: Try CCOC(=O)C1=C(N)n2c(sc(=Cc3cccnc3)c2=O)=C(C(=O)OC)C1c1cccnc1 (stereo not given) next.
Solution: > 1.25 µM

----------
- Test system: Plasmodium falciparum
- Assay explanation: NOVARTIS: Inhibition of Plasmodium falciparum 3D7 (drug-susceptible) proliferation in erythrocyte-based infection assay
- Assay type: functional, organism-based
- Study conditions: Plasmodium falciparum, 3D7
Recorded metric: pEC50
Keep in mind that pEC50 stands for -log10 of concentration in molar terms.

Solved cases below.
CC(C)(C)c1ccc(C(=O)Nc2ccc(NC(=O)c3ccc(-c4ccc([N+](=O)[O-])cc4)o3)cc2)cc1; 5.92
c1ccc(C2=Nc3ccccc3C(c3ccccc3)(c3ccccc3)N2)cc1; 6.12
C=CCN1C(=O)/C(=C2/Sc3ccc(OC)cc3N2C)SC1=Nc1ccccc1-c1ccccc1; 5.93
CCC(C(=O)Oc1ccccc1-c1nc2cc(C)ccn2c1NC(C)(C)CC(C)(C)C)c1ccccc1 (stereo unspecified); 6.05
CCOC(=O)c1ccc(NC(=O)c2ccc(S(=O)(=O)N3CC(C)CC(C)C3)cc2)cc1 (stereo unspecified); 6.18

Now for another entry.
Exercise: Endpoint output: pEC50 of COc1ccc(NC(=O)NCc2cccn2Cc2ccc(F)cc2)cc1OC . Value?
Solution: 5.97

----------
Below, each entry is listed alongside its reported CC50.
- Assay explanation: NOVARTIS: Cytotoxicity against human hepatocellular carcinoma cell line (Huh7)
- Type: toxicity, cell-based, Huh-7
- Study conditions: Huh7 cells (hepatocellular carcinoma cell line)

Solved cases below.
CC1CNC(c2ccc(NC(=O)c3ccc(C(=O)Nc4ccc(C5=NC(C)CN5)cc4)c(N)c3)cc2)=N1 (centres undefined); > 10 µM
CCn1ccccc1=Nc1cccc[n+]1CC; > 73.2 µM

Exercise: Endpoint output: CC50 of C[n+]1oc(/C=C/c2ccccc2)cc1/C=C/c1ccccc1 . Value?
Solution: > 10 µM

Exercise: Try CCCCCN(C(=O)c1ccc(Cl)cc1)C(CC)c1nc2ccccc2c(=O)n1-c1ccccc1OC (centres undefined) next.
Solution: > 8.82 µM

----------
Below, each entry is listed alongside its reported CC50.
- Assay explanation: NOVARTIS: Cytotoxicity against human hepatocellular carcinoma cell line (Huh7)
- Format: toxicity, cell-based, Huh-7
- Study conditions: Huh7 cells (hepatocellular carcinoma cell line)

Solved cases below.
COc1ccc(N2CCN(c3ncnc4sc(C(=O)NCc5cccnc5)c(C)c34)CC2)cc1; 20.7 µM
Clc1ccc(-c2c[n+](Cc3ccccc3Cl)c3n2CCC3)cc1Cl; > 30.9 µM
CN(C)CCCNCc1cc(-c2cccnc2)ccc1O; > 10 µM

Now for another entry.
Exercise: Endpoint output: CC50 of CCOC(=O)C1=C(C)NC2=C(C(=O)C(C(=O)OCC)C(c3ccccc3OC)C2)C1c1ccc([N+](=O)[O-])cc1 (stereo not given) . Value?
Solution: > 100 µM

----------
- Assay explanation: NOVARTIS: Cytotoxicity against human hepatocellular carcinoma cell line (Huh7)
- Assay type: toxicity, cell-based, Huh-7
- Study conditions: Huh7 cells (hepatocellular carcinoma cell line)
Below, each entry is listed alongside its reported CC50.

COc1cc(-c2nc(-c3ccccc3)c(-c3cccc(C(F)(F)F)c3)[nH]2)cc(OC)c1O; 44.9 µM
CCOC(=O)c1cnc2ccc(OCC)cc2c1NCC1CCCN1CC (stereo not drawn); > 10 µM
Clc1ccc2c(NC3CCCCCCC3)ccnc2c1; > 13.7 µM
O=C(NC1CCN(CC(O)CN(Cc2ccccc2)S(=O)(=O)c2ccccc2)C1)c1ccccc1 (stereo not drawn); > 7.27 µM
CC(=O)Nc1ccc(NC(=O)C(C)(C)CCl)cc1; > 10.5 µM

Exercise: Endpoint output: CC50 of COc1cc(C=C(C#N)c2nc3ccccc3[nH]2)ccc1OCc1ccccc1F . Value?
Solution: > 100 µM

Exercise: Try CC(=O)Nc1cc([N+](=O)[O-])ccc1N1CCOCC1 next.
Solution: > 10 µM

Exercise: Try CCCC(C)C(C(=O)NCc1ccccc1)N1C(=O)c2cc(NC(C)=O)ccc2NC(=O)[C@@H]1c1ccccc1 (stereo partly drawn) next.
Solution: 9.21 µM

----------
- Assay explanation: NOVARTIS: Cytotoxicity against human hepatocellular carcinoma cell line (Huh7)
- Format: toxicity, cell-based, Huh-7
- Study conditions: Huh7 cells (hepatocellular carcinoma cell line)
Recorded metric: CC50

Exercise: Endpoint output: CC50 of CCCN1/C(=C/c2sc3ccccc3[n+]2CC)C=Cc2ccccc21 . Value?
Solution: > 10 µM

Exercise: Try Cc1ccccc1Nc1sc(C(=O)c2ccc([N+](=O)[O-])cc2)c(N)c1C(=O)Nc1ccccc1 next.
Solution: > 10 µM

Hello, the source for this data is ChEMBL document CHEMBL1156829, in case you need it.
